Experiment: in vivo
Assay type: in vivo, rat (Sprague Dawley)
Details: Sprague Dawley, in vivo; male SD rat, PO 10 mg/kg; read-out: PO t1/2 (converted)
Experimental: The pharmacokinetics of compounds were studied in vivo in rats at doses of 1 mg/kg (IV) and 10 mg/kg (PO). Male rats [Sprague Dawley (SD)] surgically prepared with a jugular vein cannula were treated with experimental compounds via intravenous administration (IV; n=3; 1 mg/kg) or oral administration (PO; n=3; 10 mg/kg). […] PK parameters were calculated from the resulting data.
Experimental Readout: half-life (h)

- O=C(N[C@H]1N=C(c2ccccc2)c2cccc(F)c2NC1=O)c1c(-c2cncc(Cl)c2)nn2cccnc12 [Example 28]: 5.4
- CCc1ccc(-c2nn3cccnc3c2C(=O)N[C@H]2N=C(c3ccccc3)c3cccc(F)c3NC2=O)cn1 [Example 55]: 2.5
- CCc1ccc(-c2nn3cccnc3c2C(=O)N[C@H]2N=C(c3ccccc3)c3cccc(F)c3NC2=O)c(C)n1 [Example 57]: 2.6
- Cc1ccc(-c2nn3cccnc3c2C(=O)N[C@H]2N=C(c3ccccc3)c3cccc(F)c3NC2=O)cn1 [Example 50]: 2.4

====

assay: in vivo; assay type: in vivo; conditions: male Beagle dog, IV 0.5 mg/kg, PO 3 or 4 mg/kg
Experimental Readout: F (%)

- O=C(N[C@H]1N=C(c2ccccc2)c2ccccc2NC1=O)c1c(-c2ccccc2F)nn2cccnc12: 55
- Cc1nc2ccc(Cl)nn2c1C(=O)N[C@H]1N=C(c2ccccc2)c2cccc(F)c2NC1=O: 118
- Cc1ccc(-c2nn3cccnc3c2C(=O)N[C@H]2N=C(c3ccccc3)c3cccc(F)c3NC2=O)cn1: 65
- CCc1ccc(-c2nn3cccnc3c2C(=O)N[C@H]2N=C(c3ccccc3)c3cccc(F)c3NC2=O)cn1: 65

====

Attribute: half-life at 3 μM
experiment: in vitro; format: in vitro ADME; conditions: hepatocytes; human; 3 μM compound; read-out: Liver Hepatocyte Stability t1/2
Experimental Readout: half-life at 3 μM (h)

• O=C(N[C@H]1N=C(c2ccccc2)c2cccc(F)c2NC1=O)c1c(-c2ccccc2F)nn2cccnc12 = 4.28
• O=C(N[C@H]1N=C(c2ccccc2)c2cccc(F)c2NC1=O)c1c(-c2ccccc2F)nc2cccnn12 = 11.6
• O=C(N[C@H]1N=C(c2ccccc2)c2cccc(F)c2NC1=O)c1c(-c2cncc(Cl)c2)nn2cccnc12 = 3.23
• O=C(N[C@H]1N=C(c2ccccc2)c2ccccc2NC1=O)c1c(-c2ccccc2F)nn2cccnc12 = 145
• Cc1nc2ccc(Cl)nn2c1C(=O)N[C@H]1N=C(c2ccccc2)c2ccccc2NC1=O = 2.52
• Cc1ccn2nc(-c3ccccc3F)c(C(=O)N[C@H]3N=C(c4ccccc4)c4cccc(F)c4NC3=O)c2n1 = 8.65

====

Assay: in vivo
Type: in vivo
Settings: in vivo; male Beagle dog, IV 0.5 mg/kg; read-out: IV t1/2 (converted)
Protocol: The pharmacokinetics of compounds were studied in vivo in dogs at doses of 0.5 mg/kg (IV) and 4 mg/kg (PO). Male Beagle dogs were treated with experimental compounds via intravenous administration (n=2; 0.5 mg/kg) or oral administration (n=2; 3 or 4 mg/kg). […] Samples were subsequently thawed, prepared for analysis by protein precipitation with acetonitrile, and analysed by tandem LCMS using electrospray ionisation using a matrix-matched calibration curve. […]
Experimental Readout: half-life (h)

• CCc1ccc(-c2nn3cccnc3c2C(=O)N[C@H]2N=C(c3ccccc3)c3cccc(F)c3NC2=O)cn1 [Example 55] = 5.4
• Cc1ccc(-c2nn3cccnc3c2C(=O)N[C@H]2N=C(c3ccccc3)c3cccc(F)c3NC2=O)cn1 [Example 50] = 12.2
• Cc1nc2ccc(Cl)nn2c1C(=O)N[C@H]1N=C(c2ccccc2)c2cccc(F)c2NC1=O [Example 20] = 10.3
• O=C(N[C@H]1N=C(c2ccccc2)c2ccccc2NC1=O)c1c(-c2ccccc2F)nn2cccnc12 [Example 2] = 9.8
